Values from patent US9433211B2

MIC data for black mold (A. niger, JCM10254) follow.
One number for each entry, in µg/mL.

Recorded results for 3 compounds are shown here.
compound	unitName	MIC
CCCCCCCCC(O)CC(=O)OCCCO (stereo not shown)	µg/mL	312
CCCCCCCCCC(O)CC(=O)OCCCO (stereo not shown)	µg/mL	156
CCCCCCCC(O)CC(=O)OCCCO (stereo not shown)	µg/mL	312

Could you tell me which MIC is on file for CCCCCCCC(O)CC(=O)O.[K] (stereo not drawn) [Comparative product 2, β-hydroxydecanoic acid potassium, reference compound] ? 1250

* * *

Quick record: MIC, black mold (A. niger, JCM10254).
Numbers only, in µg/mL.

molecule	unitName	testResult
CCCCCCCC(O)CC(=O)OCC(C)O (stereo not shown)	µg/mL	312

For each of the items listed, what is its MIC?
1. CCCCCCC(O)CO (stereo not shown) [Comparative product 3, 1,2-octanediol, reference compound]
2. CCCCCCCCC(O)CC(=O)OCC(C)O (stereo not shown)
3. CCCCCCCCCC(O)CC(=O)OCC(C)O (stereo not shown)

1. 2500
2. 312
3. 312
